# experimental_target: T1, human MSLN-R1-his protein (human, UniProt Q13421 296-390)
# T1 construct: Region 1 of human mesothelin, made in HEK293E cells, His-tagged; also called human MSLN-R1 protein; hMSLN-R1-his; not shown: His tag
# T1 chain: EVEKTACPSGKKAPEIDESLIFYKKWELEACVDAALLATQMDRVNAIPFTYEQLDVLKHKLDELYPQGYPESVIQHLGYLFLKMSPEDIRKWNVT
# test_protocol: ELISA on coated MSLN-R1; antibody 100 nM
endpoint_name: OD450 (OD450)
Answers are plain numbers, in OD450.

Enquiry: OD450 lookup needed for S009-F8-4.5 (antibody, human IgG1, kappa, V domains shown) VH: QVQLQQPGAELVKPGASVKLSCKASGYTFTIYWMHWVKQRPGQGLEWIGMIHPNSGNTNYNEKFKSKATLTVDKSSSTAYMQLSSLTSEDSAVYYCSLIHWYFDVWGTGTTVTVSS VL: QIVLTQSPAIMSASPGEKVTMTCSASSSVSYMYWYQQKPGSSPRLLIYDTSNLASGVPVRFSGSGSGTSYSLTISRMEAEDAATYYCQQWSSYPLTFGAGTKLELKR , thanks.
Return: 0.24
